Can you tell me activation at 100 µM for the items I'm about to list?
- system_under_test: Drosophila OR71a (Drosophila melanogaster, UniProt Q9VUK5)
- Construct: expressed in transfected cells
- Sequence (Q9VUK5 1-378): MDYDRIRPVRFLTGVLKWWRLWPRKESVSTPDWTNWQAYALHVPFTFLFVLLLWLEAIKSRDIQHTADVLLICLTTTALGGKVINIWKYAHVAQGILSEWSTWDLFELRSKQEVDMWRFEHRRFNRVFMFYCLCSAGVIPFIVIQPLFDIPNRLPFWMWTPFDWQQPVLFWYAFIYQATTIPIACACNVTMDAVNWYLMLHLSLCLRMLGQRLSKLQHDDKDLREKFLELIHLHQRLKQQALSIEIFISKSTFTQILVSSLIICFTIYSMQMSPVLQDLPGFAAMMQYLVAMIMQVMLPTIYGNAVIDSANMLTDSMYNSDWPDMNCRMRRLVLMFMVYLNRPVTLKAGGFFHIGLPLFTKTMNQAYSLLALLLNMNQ
- Sequence (Q9VNB5 1-486 partner): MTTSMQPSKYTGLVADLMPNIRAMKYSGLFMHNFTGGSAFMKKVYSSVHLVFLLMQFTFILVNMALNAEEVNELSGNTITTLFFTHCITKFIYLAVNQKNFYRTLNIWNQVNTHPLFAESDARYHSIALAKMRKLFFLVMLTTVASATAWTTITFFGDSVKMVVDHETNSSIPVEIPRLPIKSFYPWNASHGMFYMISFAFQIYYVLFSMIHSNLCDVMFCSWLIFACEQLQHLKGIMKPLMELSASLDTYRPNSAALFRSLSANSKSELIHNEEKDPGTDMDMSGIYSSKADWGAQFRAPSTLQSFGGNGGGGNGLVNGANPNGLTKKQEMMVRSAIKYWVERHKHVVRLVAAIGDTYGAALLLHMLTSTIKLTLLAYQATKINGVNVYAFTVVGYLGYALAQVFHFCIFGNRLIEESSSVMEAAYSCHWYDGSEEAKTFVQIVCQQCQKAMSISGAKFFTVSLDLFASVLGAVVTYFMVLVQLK
- test_summary: Calcium ion fluorescence (GCaMP6) assay, OR71a stable HEK293 cell line
- Format: cell-based
- settings: HEK293, read-out: OR71a response (VUAA1-normalized response)
Answers are plain numbers, in %.

Provide activation at 100 µM values for the following items, in order.
1. CCCCCCCO
2. CC1=CCC2CC1C2(C)C (stereo not shown)
3. CC(=O)OCC(C)C [isobutyl acetate]
4. CCCCCCCCCC=O
5. CCCC(O)CC (stereo not shown)
6. CCCCC(C)O (stereo not shown)
7. C=C1CC[C@H]2O[C@]2(C)CC[C@@H]2[C@@H]1CC2(C)C [(-)-caryophyllene oxide]

[A]
0
0
0
0
0
0
7.44

* * *

- system_under_test: Drosophila OR49b (Drosophila melanogaster, UniProt Q9V6H2)
- Construct: expressed in transfected cells
- Sequence (Q9V6H2 whole entry, one chain of several): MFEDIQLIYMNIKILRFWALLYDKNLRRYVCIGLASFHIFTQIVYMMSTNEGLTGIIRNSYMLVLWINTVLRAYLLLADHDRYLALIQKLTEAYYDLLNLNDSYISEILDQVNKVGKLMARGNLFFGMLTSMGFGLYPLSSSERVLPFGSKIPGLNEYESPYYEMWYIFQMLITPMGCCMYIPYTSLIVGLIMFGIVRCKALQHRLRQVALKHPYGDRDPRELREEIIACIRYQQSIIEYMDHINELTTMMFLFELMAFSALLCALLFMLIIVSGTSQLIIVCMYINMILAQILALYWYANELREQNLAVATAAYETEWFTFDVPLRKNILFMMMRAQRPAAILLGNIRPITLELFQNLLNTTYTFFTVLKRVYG
- test_summary: cell-based
- settings: OR49b cell line; odorant cc. 100 µM; mean of biological replicates
measured_property: Average response
One number for each entry.

CCc1ccccc1 = 0.33
Cc1ccc(C(C)C)cc1 = 0.00
CC(C)=CCC/C(C)=C/CC/C(C)=C/CO = 0.00
CCCCOC(=O)CC [butyl propanoate] = 0.00
C=C1CC[C@H]2O[C@]2(C)CC[C@@H]2[C@@H]1CC2(C)C [(-)-caryophyllene oxide] = 0.00

Required: Average response, one value per compound below.
1. CC1=CCC[C@@]2(C)[C@@H]3CC[C@]12CC3(C)C [(−)-α-neoclovene]
2. C=C1CCC2(C(C)C)CC12 (stereo not shown)
3. CCCCCCCCCC=O
4. C=CCc1ccc(O)c(OC)c1
5. CCCOC(C)=O [propyl acetate]
6. O=Cc1ccccc1
7. CC/C=C\CCO

[A]
1. 0.00
2. 0.0368
3. 0.09
4. 0.00
5. 0.014
6. 0.23
7. 0.00

[Q] Look up Average response of Cc1ccc(C)c(C)c1 and report it.
[A] 0.20
